Ref: the Biogen ADME set (Fang et al. 2023)

# applied.conditions: pH 6.8
Each record here notes measured aqueous solubility.
value.type: aqueous solubility (µg/mL)

[[record]]
mol_smiles = "CC(C)c1nnc(CN2CCN(c3ccccc3Cl)CC2)o1"
value_type = "aqueous solubility"
readout_value = 50.7

[[record]]
mol_smiles = "O=C(NC1=NS(=O)(=O)c2ccccc21)c1cc(-c2ccc(F)cc2)no1"
value_type = "aqueous solubility"
readout_value = 31.8

[[record]]
mol_smiles = "COc1cc(C#N)ccc1Oc1nc2ccccc2o1"
value_type = "aqueous solubility"
readout_value = 8.7

[[record]]
mol_smiles = "O=C(NCc1cccnc1)c1sccc1-c1ccccc1"
value_type = "aqueous solubility"
readout_value = 65.6


----------
Each record here notes measured intrinsic clearance, rat liver microsomes.
value.type: intrinsic clearance, rat liver microsomes (mL/min/kg)

[[record]]
molecule = "COc1ccc(Cc2nnn[nH]2)cc1F"
relation_qualifier = "≤"
readout_value = 10.7

[[record]]
molecule = "Cc1ccnc(NC(=O)CN2CCCC2=O)c1"
relation_qualifier = "≤"
readout_value = 10.7

[[record]]
molecule = "COc1ccc(CN2CCC(c3cc[nH]n3)CC2)cn1"
relation_qualifier = "="
readout_value = 103

[[record]]
molecule = "Cc1cccn(Cc2cccc(C#N)c2)c1=O"
relation_qualifier = "="
readout_value = 28.8

[[record]]
molecule = "CCc1c(C(=O)NCCc2ccc(N3CCCCC3)cc2)[nH]c2ccc(Cl)cc12"
relation_qualifier = "="
readout_value = 484

[[record]]
molecule = "Cc1nc(Cn2nnnc2C(C)(C)C)nc2ccccc12"
relation_qualifier = "="
readout_value = 724

[[record]]
molecule = "CN(CCc1ccccn1)c1cnc2ccccc2n1"
relation_qualifier = "="
readout_value = 862

[[record]]
molecule = "CCS(=O)(=O)N1CCC(C(=O)N(C)C2CCCCCCC2)CC1"
relation_qualifier = "="
readout_value = 857

[[record]]
molecule = "Cn1cc(CCNC(=O)N2CCCc3c(F)cccc32)cn1"
relation_qualifier = "="
readout_value = 230

[[record]]
molecule = "CC(C)Oc1ccc(C2(C(=O)NC3CCS(=O)(=O)CC3)CCCC2)cc1"
relation_qualifier = "="
readout_value = 210

[[record]]
molecule = "CC(C(=O)Nc1ccccc1)N1CCCN(c2nccs2)CC1 (stereo not drawn)"
relation_qualifier = "="
readout_value = 2020

[[record]]
molecule = "CCc1nc(NC(=O)c2ccccc2F)sc1C"
relation_qualifier = "="
readout_value = 146

[[record]]
molecule = "CC(=O)N1CCC(CNc2nccc3cccnc23)CC1"
relation_qualifier = "="
readout_value = 80.8

[[record]]
molecule = "Cc1nccn1-c1cncc(N2CCN(CC3CCCC3)C(=O)C2)n1"
relation_qualifier = "="
readout_value = 540

[[record]]
molecule = "CN1CCCN(c2nc(C(F)(F)F)nc3cc4c(cc23)OCO4)CC1"
relation_qualifier = "="
readout_value = 209

[[record]]
molecule = "CCN(CC)C(=O)Oc1cccc2cccnc12"
relation_qualifier = "="
readout_value = 189

[[record]]
molecule = "CCc1ccccc1S(=O)(=O)NCCc1cn[nH]c1"
relation_qualifier = "="
readout_value = 533

[[record]]
molecule = "Cc1ccc(NC(=O)CN2CCCN(c3ccc(C(F)(F)F)cn3)CC2)cc1"
relation_qualifier = "="
readout_value = 602

[[record]]
molecule = "CN1CCC(N(Cc2cccnc2)C(=O)NCCCc2ccccc2)CC1"
relation_qualifier = "="
readout_value = 1140

[[record]]
molecule = "COc1nc(C)nc(N(C)Cc2nccs2)c1C"
relation_qualifier = "="
readout_value = 508

[[record]]
molecule = "Brc1ccc(-c2nnc(Cn3cnc4ccccc43)o2)o1"
relation_qualifier = "="
readout_value = 41.1

[[record]]
molecule = "C=CC(=O)Nc1cccc(Oc2nc(Nc3ccc(N4CCN(C)CC4)c(F)c3)nc3[nH]ccc23)c1"
relation_qualifier = "="
readout_value = 344

[[record]]
molecule = "O=C(NCC1CCC2(CC1)OCCO2)c1[nH]nc2c1CCCC2"
relation_qualifier = "="
readout_value = 1270

[[record]]
molecule = "Cn1c(=O)n(C)c2cc(CN3CCC(c4ccc(Cc5ccccc5F)cn4)CC3)ccc21"
relation_qualifier = "="
readout_value = 108

[[record]]
molecule = "Cc1nc(CNC2CCN(C(=O)C3CC3)CC2)cs1"
relation_qualifier = "≤"
readout_value = 10.7

[[record]]
molecule = "N#Cc1cccnc1NCCc1ccc(F)cc1"
relation_qualifier = "="
readout_value = 1150

[[record]]
molecule = "Cc1cnc(-c2nc(NCc3ccccn3)ncc2-c2onc(C)c2C)cn1"
relation_qualifier = "="
readout_value = 1040

[[record]]
molecule = "c1ccc(-c2noc(NCC3CCC3)n2)cc1"
relation_qualifier = "="
readout_value = 741

[[record]]
molecule = "Cc1ccc2c(c1)cc(C(=O)N1CCOC(C(=O)N3CCc4ccccc4C3)C1)n2C (stereo not drawn)"
relation_qualifier = "="
readout_value = 2510

[[record]]
molecule = "c1ccc(-c2nc(CSc3ccc(-n4cccn4)nn3)cs2)cc1"
relation_qualifier = "="
readout_value = 420

[[record]]
molecule = "CCOC(=O)c1ccc(N2CCSCC2)nc1"
relation_qualifier = "="
readout_value = 2980

[[record]]
molecule = "C=CC(=O)N1C[C@H](Nc2ncnc3[nH]ccc23)CC[C@@H]1C"
relation_qualifier = "="
readout_value = 27.3

[[record]]
molecule = "Cc1nc(NC2(c3cccc(Cl)c3)CC2)c2c(C)noc2n1"
relation_qualifier = "="
readout_value = 254


----------
Each record here notes measured intrinsic clearance, human liver microsomes.
value.type: intrinsic clearance, human liver microsomes

[[record]]
compound = "CN(Cc1cccc(C#N)c1)Cc1cnn(C)c1"
readout_value = "≤ 4.74 mL/min/kg"

[[record]]
compound = "O=C(NCc1cccc(F)c1)c1[nH]nnc1-c1ccccc1"
readout_value = "≤ 4.74 mL/min/kg"

[[record]]
compound = "CCc1c[nH]c2ncnc(N3CCC(CN4CCN(C)CC4)CC3)c12"
readout_value = "≤ 4.74 mL/min/kg"

[[record]]
compound = "CCn1nc(CNC(=O)C2CCOCC2)c2ccccc21"
readout_value = "≤ 4.74 mL/min/kg"

[[record]]
compound = "O=C(NCC1CC1)c1cncn1-c1ccc(F)cc1"
readout_value = "≤ 4.74 mL/min/kg"

[[record]]
compound = "COc1cc2c(cc1OC)CN(C(=O)C1CCCN(C(=O)Nc3ccccc3)C1)CC2 (stereo not drawn)"
readout_value = "≤ 4.74 mL/min/kg"

[[record]]
compound = "Cc1ccc(N2CCN(C(=O)c3c(C)nc4sccn34)CC2=O)cc1"
readout_value = "≤ 4.74 mL/min/kg"

[[record]]
compound = "O=C(c1ccc(Cl)cc1)N1CCC(c2nnc3n2CCCC3)CC1"
readout_value = "≤ 4.74 mL/min/kg"


----------
Each record here notes measured MDR1-MDCK efflux ratio.
value.type: MDR1-MDCK efflux ratio

[[record]]
compound = "COc1ccc(C(=O)N2CCN(C(=O)/C=C/c3ccc(Br)cc3)CC2)cc1"
value_type = "MDR1-MDCK efflux ratio"
readout_value = 0.858

[[record]]
compound = "O=C(NC12CCCC1NCC2)c1ccc(-c2cn[nH]c2)cc1 (centres undefined)"
value_type = "MDR1-MDCK efflux ratio"
readout_value = 2.29

[[record]]
compound = "CC(C)c1nccn1-c1cccc([C@@H]2CCCN2C(=O)CCc2ccccc2)n1"
value_type = "MDR1-MDCK efflux ratio"
readout_value = 10.2

[[record]]
compound = "O=C(Nc1cncc2ccccc12)c1ncccn1"
value_type = "MDR1-MDCK efflux ratio"
readout_value = 0.676

[[record]]
compound = "COc1ccccc1C(=O)CSc1nncn1C1CC1"
value_type = "MDR1-MDCK efflux ratio"
readout_value = 1.3

[[record]]
compound = "COc1ccc(N2CCCN(CC3CCN(C(=O)C4CC4)CC3)CC2)cc1"
value_type = "MDR1-MDCK efflux ratio"
readout_value = 1.11

[[record]]
compound = "Cc1ccc2oc(C(=O)N3CC[C@H](O)[C@@H](N4CCOCC4)CC3)cc2c1"
value_type = "MDR1-MDCK efflux ratio"
readout_value = 2.46

[[record]]
compound = "COc1ccc(S(=O)(=O)CCC(=O)Nc2ccc3c(c2)N(C)C(=O)CO3)cc1"
value_type = "MDR1-MDCK efflux ratio"
readout_value = 27.6

[[record]]
compound = "COc1cccc(-c2ccc(C(=O)N(C)Cc3c(C)nn(C(C)C)c3C)o2)c1"
value_type = "MDR1-MDCK efflux ratio"
readout_value = 1.47

[[record]]
compound = "O=C(Nc1ccc2sccc2c1)N1CCCN(C(=O)Oc2ccccc2)CC1"
value_type = "MDR1-MDCK efflux ratio"
readout_value = 1.31

[[record]]
compound = "NC1CCC(C(=O)N2CCC(c3c[nH]c4ncccc34)CC2)C1 (centres undefined)"
value_type = "MDR1-MDCK efflux ratio"
readout_value = 2.66

[[record]]
compound = "O=C1Oc2nc3cc4c(cc3cc2CN1CCN1CCOCC1)OCO4"
value_type = "MDR1-MDCK efflux ratio"
readout_value = 2.42

[[record]]
compound = "COc1ccc(-c2nnc3nn(C)c(=O)n3c2-c2ccc(OC)cc2)cc1"
value_type = "MDR1-MDCK efflux ratio"
readout_value = 0.904

[[record]]
compound = "Cc1nc(NCc2ccc(F)cc2)n(C)n1"
value_type = "MDR1-MDCK efflux ratio"
readout_value = 0.975

[[record]]
compound = "N#Cc1ccc(CN2CC(n3cccn3)C2)cc1"
value_type = "MDR1-MDCK efflux ratio"
readout_value = 0.596

[[record]]
compound = "Cc1ccc(-c2nnc([C@H]3CCN(Cc4cc5ccccc5o4)C3)o2)cc1"
value_type = "MDR1-MDCK efflux ratio"
readout_value = 0.679

[[record]]
compound = "CCN(CC)C(=O)N1CCCN(C(=O)N(CC)CC)CC1"
value_type = "MDR1-MDCK efflux ratio"
readout_value = 4.51

[[record]]
compound = "C[C@@H]1CCN(C(=O)CC#N)C[C@@H]1N(C)c1ncnc2[nH]ccc12"
value_type = "MDR1-MDCK efflux ratio"
readout_value = 41.1

[[record]]
compound = "CC#CC(=O)N1CC[C@@H](n2cc(-c3ccc(Oc4c(F)cccc4F)cc3)c3c(N)n[nH]c(=O)c32)C1"
value_type = "MDR1-MDCK efflux ratio"
readout_value = 50.2

[[record]]
compound = "Cc1ccc2nc(CN(C)Cc3cccc(Cl)c3Cl)cc(=O)n2c1"
value_type = "MDR1-MDCK efflux ratio"
readout_value = 0.617

[[record]]
compound = "N#CC1(C(=O)N2CCN(Cc3ccccn3)CC2)CCCCC1"
value_type = "MDR1-MDCK efflux ratio"
readout_value = 1.11

[[record]]
compound = "O=C(NCC#CCN1CCc2ccccc2C1)NCc1ccc(F)cc1"
value_type = "MDR1-MDCK efflux ratio"
readout_value = 4

[[record]]
compound = "CC(=O)N(c1ccc(C)cc1)c1nc(Cn2ccnc2)cs1"
value_type = "MDR1-MDCK efflux ratio"
readout_value = 2.87

[[record]]
compound = "Cc1ccc2nc(C)c(-c3nc(C)nn3CCO)cc2c1"
value_type = "MDR1-MDCK efflux ratio"
readout_value = 9.02

[[record]]
compound = "CN(CC(=O)NC1(C#N)CCCC1)c1ccccc1"
value_type = "MDR1-MDCK efflux ratio"
readout_value = 0.924

[[record]]
compound = "O=C(Cc1cn2ccccc2n1)N1CCC(n2c(=O)[nH]c3ccccc32)CC1"
value_type = "MDR1-MDCK efflux ratio"
readout_value = 24.3

[[record]]
compound = "Cc1cc(F)ccc1CC(=O)N[C@@H]1CCOC[C@H]1OCCO"
value_type = "MDR1-MDCK efflux ratio"
readout_value = 19.7

[[record]]
compound = "COc1cc(CN2CCCNCC2)cc2c1OCO2"
value_type = "MDR1-MDCK efflux ratio"
readout_value = 8.38

[[record]]
compound = "CCOC(=O)N1CCC(Nc2nc3ccccc3s2)CC1"
value_type = "MDR1-MDCK efflux ratio"
readout_value = 0.812

[[record]]
compound = "O=C(NC[C@]1(O)CCN(Cc2ccsc2)C[C@H]1O)c1c[nH]cn1"
value_type = "MDR1-MDCK efflux ratio"
readout_value = 0.366

[[record]]
compound = "O=C(NCCc1nnc2n1CCC2)c1ccc2c(c1)CCC2"
value_type = "MDR1-MDCK efflux ratio"
readout_value = 82.7

[[record]]
compound = "COCCNc1cc(NC(=O)N2CCCc3cc(CN4CCN(C)CC4=O)c(C=O)nc32)ncc1C#N"
value_type = "MDR1-MDCK efflux ratio"
readout_value = 46

[[record]]
compound = "NC(=O)c1cccc(Cn2cnc3c(oc4ccccc43)c2=O)c1"
value_type = "MDR1-MDCK efflux ratio"
readout_value = 13.9

[[record]]
compound = "CNCc1cc(N(C)C)nc(C2CCCN2C(=O)COc2ccc(F)cc2)n1 (centres undefined)"
value_type = "MDR1-MDCK efflux ratio"
readout_value = 46.7

